Biological target: HCV NS3-4A serine protease (full-length NS3-4A protein) (Hepatitis C virus genotype 1a (isolate 1) (HCV), UniProt P26664)
Sequence (P26664 1027-1657): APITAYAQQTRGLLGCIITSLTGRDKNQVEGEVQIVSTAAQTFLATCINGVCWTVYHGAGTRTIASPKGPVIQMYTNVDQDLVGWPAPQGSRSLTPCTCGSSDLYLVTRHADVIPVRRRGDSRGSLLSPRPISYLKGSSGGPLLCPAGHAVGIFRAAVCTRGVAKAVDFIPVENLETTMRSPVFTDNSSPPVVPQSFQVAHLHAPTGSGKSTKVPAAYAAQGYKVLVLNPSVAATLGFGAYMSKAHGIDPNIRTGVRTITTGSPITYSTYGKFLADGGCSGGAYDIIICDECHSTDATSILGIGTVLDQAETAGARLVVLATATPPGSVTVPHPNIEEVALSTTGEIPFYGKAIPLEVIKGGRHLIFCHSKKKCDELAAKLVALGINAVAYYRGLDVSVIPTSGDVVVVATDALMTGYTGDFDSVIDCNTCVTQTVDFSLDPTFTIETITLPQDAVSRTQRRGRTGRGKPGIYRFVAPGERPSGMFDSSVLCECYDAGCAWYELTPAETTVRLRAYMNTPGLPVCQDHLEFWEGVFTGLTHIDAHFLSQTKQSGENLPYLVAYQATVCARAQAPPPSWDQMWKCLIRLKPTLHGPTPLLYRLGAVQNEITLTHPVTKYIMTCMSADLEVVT
Sequence (P26664 1658-1711 partner): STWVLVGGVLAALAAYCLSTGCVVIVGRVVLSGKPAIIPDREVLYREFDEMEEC
Test: HCV NS3-4A protease assay
Details: strain HCV-1, fluorogenic peptide substrate, read-out: Protease assay Ex. 12 IC50
pIC50: −log10 of the molar value.
Classify by measured pIC50: class 1 if it is equal to or exceeds 8, class 0 if it is smaller.

| COMPOUND | LABEL |
| --- | --- |
| C=C[C@@H]1C[C@]1(NC(=O)[C@@H]1C[C@@]2(CN1C(=O)[C@@H](NC(=O)[C@@H](NC(=O)c1cc3ccccc3[nH]1)C1CCCCC1)C(C)(C)C)C(C)(C)C21CCC1)C(=O)NS(=O)(=O)N1CCCC1 | class 0 |
| C=C[C@@H]1C[C@]1(NC(=O)[C@@H]1C[C@@]2(CN1C(=O)[C@@H](NC(=O)[C@@H](NC(=O)[C@@H]1CCCCN1C(C)C)C1CCCCC1)C(C)(C)C)C(C)(C)C21CCC1)C(=O)NS(=O)(=O)N(C)CC1CC1 | class 1 |
| C=C[C@@H]1C[C@]1(NC(=O)[C@@H]1C[C@@]2(CN1C(=O)[C@@H](NC(=O)[C@@H](NC(=O)Cn1nc(C)cc1C)C1CCCCC1)C(C)(C)C)C(C)(C)C21CCC1)C(=O)NS(=O)(=O)N1CCCC1 | class 0 |

Hi team, for `C=C[C@@H]1C[C@]1(NC(=O)[C@@H]1C[C@@]2(CN1C(=O)[C@@H](NC(=O)[C@@H](NC(=O)[C@H]1CCCN1CC)C1CCCCC1)C(C)(C)C)C(C)(C)C21CCC1)C(=O)NS(=O)(=O)N1CCCC1` , is the recorded pIC50 at or above 8?
class 1

Hi team, for `C=C[C@@H]1C[C@]1(NC(=O)[C@@H]1C[C@@]2(CN1C(=O)[C@@H](NC(=O)[C@@H](NC(=O)[C@@H]1CCCCN1C(C)C)C1CCCCC1)C(C)(C)C)C(C)(C)C21CCC1)C(=O)NS(=O)(=O)N1CCC(F)(F)C1` , is the recorded pIC50 at or above 8?
class 1

Hi team, for C=CC1CC1(NC(=O)[C@@H]1C[C@@]2(CN1C(=O)[C@@H](NC(=O)[C@@H](NC(=O)C1CCCCN1C(C)C)C(C)(C)C)C(C)(C)C)C(C)(C)C21CCC1)C(=O)NS(=O)(=O)N1CCC[C@H]1CO (stereo partly drawn) , is the recorded pIC50 at or above 8?
class 0

Hi team, for `C=C[C@@H]1C[C@]1(NC(=O)[C@@H]1C[C@@]2(CN1C(=O)[C@@H](NC(=O)[C@@H](NC(=O)[C@H]1CCCCN1C(C)C)C1CCCCC1)C(C)(C)C)C(C)(C)C21CCC1)C(=O)NS(=O)(=O)N1CCCC1` , is the recorded pIC50 at or above 8?
class 1

###

Measured pIC50 of individual entries
Target: HCV NS3-4A serine protease (full-length NS3-4A protein) (Hepatitis C virus genotype 1a (isolate 1) (HCV), UniProt P26664)
Experiment: HCV NS3-4A protease assay
Type: biochemical, HCV genotype 1a
Conditions: strain HCV-1, fluorogenic peptide substrate, read-out: Protease assay Ex. 12 IC50
Schema: pIC50 number; meaning minus log10 of the concentration expressed in molar units.

| SMILES TEXT | pIC50 |
| --- | --- |
| C=C[C@@H]1C[C@]1(NC(=O)[C@@H]1C[C@@]2(CN1C(=O)[C@@H](NC(=O)[C@@H](NC(=O)[C@@H]1CCCN1C(C)C)C1CCCC1)C(C)(C)C)C(C)(C)C21CCC1)C(=O)NS(=O)(=O)N1CCCC1 | 8.46 |
| C=C[C@@H]1C[C@]1(NC(=O)[C@@H]1C[C@@]2(CN1C(=O)[C@@H](NC(=O)[C@@H](NC(=O)C(C)(C)N1CCCCC1)C1CCCCC1)C(C)(C)C)C(C)(C)C21CCC1)C(=O)NS(=O)(=O)N1CCCC1 | 8.10 |
| C=C[C@@H]1C[C@]1(NC(=O)[C@@H]1C[C@@]2(CN1C(=O)[C@@H](NC(=O)[C@@H](NC(=O)[C@@H]1CCCCN1CC)C1CCCCC1)C(C)(C)C)C(C)(C)C21CCC1)C(=O)NS(=O)(=O)N(CC)CC | 9.05 |

API: the following record is the query input.
For the compound `C=C[C@@H]1C[C@]1(NC(=O)[C@@H]1C[C@@]2(CN1C(=O)[C@@H](NC(=O)[C@@H](NC(=O)[C@@H]1CCCN1CC)c1ccccc1)C(C)(C)C)C(C)(C)C21CCC1)C(=O)NS(=O)(=O)N1CCCC1` , report pIC50.
8.10

These data points were gathered from patent US8613914B2.
